Target: T1, interleukin-23 receptor (IL-23R), Q5VWK5
T1 chain: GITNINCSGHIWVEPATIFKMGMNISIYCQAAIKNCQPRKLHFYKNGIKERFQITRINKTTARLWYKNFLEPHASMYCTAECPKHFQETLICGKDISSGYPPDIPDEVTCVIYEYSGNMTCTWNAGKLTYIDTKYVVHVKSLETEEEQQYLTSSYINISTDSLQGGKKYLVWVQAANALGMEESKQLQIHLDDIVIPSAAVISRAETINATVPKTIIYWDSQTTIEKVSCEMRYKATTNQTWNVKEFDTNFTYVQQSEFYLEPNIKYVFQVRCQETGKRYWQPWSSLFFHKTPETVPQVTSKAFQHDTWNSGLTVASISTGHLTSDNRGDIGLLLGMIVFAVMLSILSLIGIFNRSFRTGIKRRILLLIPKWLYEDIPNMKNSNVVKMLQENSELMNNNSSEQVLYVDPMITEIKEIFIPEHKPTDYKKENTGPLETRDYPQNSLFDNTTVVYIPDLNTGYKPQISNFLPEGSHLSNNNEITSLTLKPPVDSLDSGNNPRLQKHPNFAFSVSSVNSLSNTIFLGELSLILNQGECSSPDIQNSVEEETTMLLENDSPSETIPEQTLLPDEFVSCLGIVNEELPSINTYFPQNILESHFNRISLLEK
Assay: cell-based or functional assay
Positions of bridges follow the written chain, without caps; N, C: chain ends. Non-standard residues stand in square brackets, D forms with d. No end group written: not given here. 2Nal(6-OH) = N[C@@H](Cc1ccc2cc(O)ccc2c1)C(=O)O; Trp(7-Me) = Cc1cccc2c(C[C@H](N)C(=O)O)c[nH]c12; d(hLys(Me3)) = C[N+](C)(C)CCCCC[C@@H](N)C(=O)O; AEF = NCCOc1ccc(C[C@H](N)C(=O)O)cc1; αMeF = C[C@](N)(Cc1ccccc1)C(=O)O; 3Pal = N[C@@H](Cc1cccnc1)C(=O)O; Pen = CC(C)(S)[C@H](N)C(=O)O; lipid = not defined here; Thp = NC1(C(=O)O)CCOCC1; Sar = CNCC(=O)O
Measured Attribute: PBMC pSTAT3 IC50

Report PBMC pSTAT3 IC50 for each item below.
1. R[Pen]ET[Trp(7-Me)]K(Ac)[Pen][AEF][2Nal(6-OH)][Thp]EN[3Pal][Sar] (disulfide 2-7 (inferred); ends not checked) [SEQ ID NO: 136]
2. R[Pen]NT[Trp(7-Me)]K(Ac)[Pen][2‑amino‑3‑(4-(2-aminoethoxy)phenyl)propanoic acid][2‑amino‑3‑(6-(2-hydroxyphenyl)naphthalen-2-yl)propanoic acid][Thp]EN[Thp] (not fully specified (bridges); ends and bridges not checked) [SEQ ID NO: 431]
3. [Pen]NT[Trp(7-Me)]K[Pen][AEF][2Nal(6-OH)][Thp]K(Ac)N[3Pal][Sar] (disulfide 1-6 (inferred); ends not checked; also: K5: lipidated lysine, lipid not given here) [SEQ ID NO: 131]
4. [d(hLys(Me3))][Pen]NT[Trp(7-Me)]K(Ac)[Pen][2‑amino‑3‑(4-(2-aminoethoxy)phenyl)propanoic acid][2‑amino‑3‑(6-hydroxynaphthalen-2-yl)propanoic acid][Thp]K(Ac)N[3Pal][Sar]K(lipid) (disulfide 2-7 (inferred); ends not checked; also: K15 lipidated lysine, lipid not given here) [SEQ ID NO: 181]
5. R[Pen]NT[Trp(7-Me)]K(Ac)[Pen][2‑amino‑3‑(4-(2-aminoethoxy)phenyl)propanoic acid][2‑amino‑3‑(5-methylnaphthalen-2-yl)propanoic acid][Thp]EN[αMeF] (disulfide 2-7 (inferred); ends not checked) [SEQ ID NO: 445]
6. [Pen]ET[Trp(7-Me)]K(Ac)[Pen][2‑amino‑3‑(4-(2-aminoethoxy)phenyl)propanoic acid][2‑amino‑3‑(6-hydroxynaphthalen-2-yl)propanoic acid][Thp]K(Ac)N[3Pal][Sar]K(lipid) (disulfide 1-6 (inferred); ends not checked; also: K14 lipidated, lipid not given here) [SEQ ID NO: 170]

["< 10 pM", "> 1 nM", "< 1 nM", "< 1 nM", "> 1 nM", "< 1 nM"]
